Target: human recombinant BACE2 (Homo sapiens (Human), UniProt Q9Y5Z0)
Sequence (Q9Y5Z0 63-518): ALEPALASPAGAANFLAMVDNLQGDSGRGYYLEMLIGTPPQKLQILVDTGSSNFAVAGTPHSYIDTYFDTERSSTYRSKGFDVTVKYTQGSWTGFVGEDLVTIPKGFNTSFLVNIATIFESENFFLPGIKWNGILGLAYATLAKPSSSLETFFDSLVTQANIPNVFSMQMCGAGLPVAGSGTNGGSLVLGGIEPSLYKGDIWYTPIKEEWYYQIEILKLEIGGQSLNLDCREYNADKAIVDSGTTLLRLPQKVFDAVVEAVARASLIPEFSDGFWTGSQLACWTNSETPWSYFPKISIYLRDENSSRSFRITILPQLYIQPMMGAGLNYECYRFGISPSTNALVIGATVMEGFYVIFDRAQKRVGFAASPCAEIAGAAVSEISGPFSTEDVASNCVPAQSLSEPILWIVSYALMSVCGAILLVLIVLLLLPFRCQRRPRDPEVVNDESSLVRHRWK
Assay: In vitro enzymatic BACE2 FRET assay
Assay type: biochemical
Details: read-out: IC50 IP (μM) BACE2 enzyme
Method: These recombinant proteins were further purified using Ni-NTA affinity chromatography (Qiagen). […] This assay is effectively started by the addition of FRET substrate (50 nM) and the combination is incubated for one hour. The FRET assay is terminated by addition of Tris buffer, which raises the pH to neutrality, and the fluorescence is determined. […] Proteolytic cleavage of the FRET substrate releases quenching of fluorescence (excitation 488 nm and emission 590 nm).
experimental.endpoint: IC50 (µM)

In [3]: df
Out[3]:
                                    molecule  experimental_endpoint  measurement_qualifier  value_reported
 0  C[C@]1(c2cc(NC(=O)c3ccc(Cl)cn3)cc(F)c2F)N=C(N)S[C@@]2(C(=O)N3CCCC3)C[C@H]21                   IC50                      <         0.00203
 1  C#CCOc1cnc(C(=O)Nc2ccc(F)c([C@@]3(CF)N=C(N)S[C@@]4(c5cnco5)C[C@@H]34)c2)cn1                   IC50                      <          0.0061
 2  C#C[C@H](C)Oc1cnc2c(Nc3ccc(F)c([C@@]4(CF)N=C(N)S[C@@]5(CF)C[C@H]54)c3)nccc2n1                   IC50                      =           0.282
 3  C[C@]1(c2cc(NC(=O)c3ccc(OCC(F)(F)F)cn3)cc(F)c2F)N=C(N)S[C@@]2(C(F)F)C[C@@H]12                   IC50                      =           0.263
 4  C#CCOc1cnc2c(Nc3ccc(F)c([C@@]4(CF)N=C(N)S[C@@]5(c6c[nH]nn6)C[C@@H]45)c3)nccc2n1                   IC50                      =         0.00422
 5  C#CCOc1cnc(C(=O)Nc2cnc(OC)c([C@@]3(C)N=C(N)S[C@@]4(C(F)F)C[C@@H]34)c2)cn1                   IC50                      =          0.0406
 6  C=C(C)COc1cnc(C(=O)Nc2cc(F)c(F)c([C@@]3(C)N=C(N)S[C@@]4(COC)C[C@H]43)c2)cn1                   IC50                      =           0.072
 7  COC[C@]12C[C@H]1[C@@](C)(c1cc(NC(=O)c3cnc(OCc4nc(C)no4)cn3)cc(F)c1F)N=C(N)S2                   IC50                      =           0.192
 8  COC[C@]12C[C@H]1[C@@](C)(c1cc(NC(=O)c3cnc(OCCCF)cn3)cc(F)c1F)N=C(N)S2                   IC50                      =           0.209
 9  C#CCOc1cnc(C(=O)Nc2ccc(F)c([C@@]3(C)N=C(N)S[C@@]4(C(=O)NC(C)(C)CF)C[C@H]43)c2)cn1                   IC50                      =          0.0213
10  COC[C@]12C[C@H]1[C@@](C)(c1cc(Nc3nccc4cc(OCc5nccs5)cnc34)cc(F)c1F)N=C(N)S2                   IC50                      =           0.693
11  CC(C)(O)[C@]12C[C@H]1[C@@](C)(c1cc(Nc3ncnc4cc(C#N)cnc34)cc(F)c1F)N=C(N)S2                   IC50                      =           0.183
12  NC1=N[C@](CF)(c2cc(NC(=O)c3ccc(Cl)cn3)ccc2F)[C@@H]2[C@H]3CSC[C@]32S1 (mixture of isomers)                   IC50                      =         0.00709
13  CC#CCCOc1cnc(C(=O)Nc2ccc(F)c([C@@]3(C)N=C(N)S[C@@]4(COC)C[C@H]43)c2)cn1                   IC50                      =           0.189
14  C[C@]1(c2cc(Nc3nccc4[nH]c(=O)cnc34)cc(F)c2F)N=C(N)S[C@@]2(C(F)F)C[C@@H]12                   IC50                      =          0.0223
15  C[C@]1(c2cc(NC(=O)c3ccc(OCC(F)(F)C(F)F)cn3)cnc2F)N=C(N)S[C@@]2(CF)C[C@H]21                   IC50                      =           0.466
16  CON(C)C(=O)[C@]12C[C@H]1[C@@](C)(c1cc(NC(=O)c3cnc(OCC(F)(F)F)cn3)ccc1F)N=C(N)S2                   IC50                      =          0.0217
17  COC[C@H](C)Oc1cnc(C(=O)Nc2ccc(F)c([C@@]3(C)N=C(N)S[C@@]4(COC)C[C@H]43)c2)cn1                   IC50                      =           0.333
18  COC[C@]12C[C@H]1[C@@](C)(c1cc(NC(=O)c3cnc(OCc4cc(C)no4)cn3)cc(F)c1F)N=C(N)S2                   IC50                      =          0.0897
19  CNC(=O)[C@]12C[C@H]1[C@@](C)(c1cc(NC(=O)c3cnc(OCC(F)(F)F)cn3)cc(F)c1F)N=C(N)S2                   IC50                      =          0.0782
20  NC1=N[C@](CF)(c2cc(NC(=O)c3ccc(Cl)cn3)ccc2F)[C@@H]2C[C@]2(/C=C/C(=O)N2CC(F)(F)C2)S1                   IC50                      <         0.00203
21  NC1=N[C@](CF)(c2cc(NC(=O)c3ccc(Cl)cn3)ccc2F)[C@@H]2C[C@]2(c2ccon2)S1                   IC50                      <         0.00203
22  CC(=O)[C@]12C[C@H]1[C@@](C)(c1cc(NC(=O)c3ccc(Cl)cn3)cc(F)c1F)N=C(N)S2                   IC50                      =         0.00174
23  NC1=N[C@](CF)(c2cc(Nc3nccc4nc(OCc5ncco5)cnc34)cc(F)c2F)[C@@H]2C[C@@H]2S1                   IC50                      =           0.119
24  COC[C@]12C[C@H]1[C@@](C)(c1cc(NC(=O)c3cnc(OCC(C)(F)F)cn3)cc(F)c1F)N=C(N)S2                   IC50                      =           0.158
25  COC[C@]12C[C@H]1[C@@](C)(c1cc(NC(=O)c3ncc(OCC(F)(F)F)cc3C)cc(F)c1F)N=C(N)S2                   IC50                      =           0.703
26  COC[C@]12C[C@H]1[C@@](CF)(c1cc(Nc3nccc4cc(C#N)cnc34)ccc1F)N=C(N)S2                   IC50                      =         0.00332

* * *

target: human recombinant BACE1 (Homo sapiens (Human), UniProt P56817); test: In vitro enzymatic BACE1 FRET assay; assay type: biochemical; details: read-out: IC50 IP (μM) BACE1 enzyme
Sequence (P56817 46-501): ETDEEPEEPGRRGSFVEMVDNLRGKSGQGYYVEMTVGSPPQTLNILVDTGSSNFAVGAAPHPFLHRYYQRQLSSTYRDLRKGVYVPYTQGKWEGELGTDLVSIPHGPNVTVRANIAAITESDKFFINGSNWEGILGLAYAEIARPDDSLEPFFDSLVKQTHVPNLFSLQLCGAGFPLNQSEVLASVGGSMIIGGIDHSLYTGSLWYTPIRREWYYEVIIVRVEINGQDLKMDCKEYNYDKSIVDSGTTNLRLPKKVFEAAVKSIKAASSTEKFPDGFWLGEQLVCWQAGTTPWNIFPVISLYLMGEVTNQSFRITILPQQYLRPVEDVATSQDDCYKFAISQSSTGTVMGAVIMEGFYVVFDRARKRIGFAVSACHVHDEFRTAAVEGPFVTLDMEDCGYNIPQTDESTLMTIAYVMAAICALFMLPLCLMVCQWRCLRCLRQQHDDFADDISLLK
experimental.endpoint: IC50

>>> df
                                  mol_smiles  value_reported
 0  C[C@]1(c2cc(Nc3ncnc4cc(OCc5ncco5)cnc34)ccc2F)N=C(N)S[C@]2(CO)[C@H]1C2(F)F       0.0019 µM
 1  C#C[C@H](C)Oc1cnc(C(=O)Nc2cc(F)c(F)c([C@@]3(C)N=C(N)S[C@@]4(COC)C[C@H]43)c2)c(C)c1       0.0389 µM
 2  C#CCOc1cnc(C(=O)Nc2ccc(F)c([C@@]3(C)N=C(N)S[C@@]4(C#N)C[C@H]43)c2)cn1     0.000266 µM
 3  C#C[C@H](C)Oc1cnc(C(=O)Nc2ccc(F)c([C@@]3(C)N=C(N)S[C@@]4(C(F)F)C[C@@H]34)c2)cn1     0.000385 µM
 4  COCCNC(=O)/C=C/[C@]12C[C@H]1[C@@](CF)(c1cc(NC(=O)c3ccc(Cl)cn3)ccc1F)N=C(N)S2      0.00102 µM
 5  COC[C@]12C[C@H]1[C@@](C)(c1cc(NC(=O)c3cnc(OCC4(C)CC4)cn3)ccc1F)N=C(N)S2       0.0054 µM
 6  N#CC[C@]12C[C@H]1[C@@](CF)(c1cc(Nc3nccc4cc(C#N)cnc34)ccc1F)N=C(N)S2      0.00442 µM
 7  COC[C@]12C[C@H]1[C@@](C)(c1cc(NC(=O)c3ncc(O[C@@H](C)c4ncco4)cc3C)cc(F)c1F)N=C(N)S2        0.117 µM
 8  C#C[C@H](C)Oc1cnc(C(=O)Nc2ccc(F)c([C@@]3(C)N=C(N)S[C@@]4(COC)C[C@H]43)c2)cn1     0.000618 µM
 9  C[C@H](Oc1cnc2c(Nc3cc(F)c(F)c([C@@]4(C)N=C(N)S[C@@]5(C(=O)N6CCCC6)C[C@H]54)c3)nccc2n1)c1ncco1      0.00129 µM
10  Cc1nnc(COc2cnc3c(Nc4cc(F)c(F)c([C@@]5(C)N=C(N)S[C@@]6(C(F)F)C[C@@H]56)c4)nccc3n2)o1        0.011 µM
11  C#CCOc1cnc(C(=O)Nc2ccc(F)c([C@@]3(C)N=C(N)S[C@@]4(CF)C[C@H]43)c2)c(C)c1      0.00418 µM
12  NC1=N[C@](CF)(c2cc(NC(=O)c3ccc(Cl)cn3)ccc2F)[C@@H]2C[C@]2(/C=C/C(=O)N2CCOCC2)S1      0.00073 µM
